# subjectOfTest: Dickkopf-related protein 1 (Homo sapiens) (UniProt O94907)
# Sequence (O94907 whole entry, looked up): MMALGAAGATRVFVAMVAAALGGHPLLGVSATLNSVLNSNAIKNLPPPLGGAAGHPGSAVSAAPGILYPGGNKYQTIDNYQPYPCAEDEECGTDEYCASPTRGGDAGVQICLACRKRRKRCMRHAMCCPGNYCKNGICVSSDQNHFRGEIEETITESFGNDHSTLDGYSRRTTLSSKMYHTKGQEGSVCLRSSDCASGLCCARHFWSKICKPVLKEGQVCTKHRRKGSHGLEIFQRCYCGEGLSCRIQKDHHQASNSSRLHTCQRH
# assayText: DKK1 binders on small-molecule microarrays, primary screen, biochemical, small-molecule microarray, 635 nm fluorescence scan (AID 1106);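 also: score merges emission near 667 nm with signal to noise over three replicate slides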
# studyConditions: DKK1 binding, higher = more signal
endpoint: composite z-score

smilesEntry	endpoint	numericValue
COC(=O)CC=C[C@@H](C)[C@H](OCc1cccc(-c2ccccc2)c1)C1CCCCC1	composite z-score	0.352
CCOC(=O)NN=C1C[C@@H](O)[C@@H](O)[C@@H]2[C@@H]3C(=O)N(c4ccc(F)cc4F)C(=O)[C@@H]3CC[C@@H]12	composite z-score	0.462
COc1cccc([C@H]2Oc3ccc(OC)cc3C(=NO[C@@H]3O[C@H](COC(C)=O)[C@@H](OC(C)=O)[C@H](OC(C)=O)[C@H]3OC(C)=O)[C@@H]2O)c1	composite z-score	0.0647
O=C(C=Cc1ccc2c(c1)OCO2)c1ccc(F)cc1	composite z-score	1.52

* * *

Entries annotated with measured z-score
# assayText: PSAC antagonists in infected red cells, primary screen, cell-based, P. falciparum Indochina, OD700, 2 h (AID 1155);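 also: lysis reports solute entry through the parasite surface anion channel PSAC; channel blockers reduce lysis of infected cells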
# studyConditions: P. falciparum Indochina infected erythrocytes, osmotic lysis OD700; higher = more signal, called active from +8 up or from −8 down

compound	z-score
CCCNC(=O)OC[C@H]1O[C@H](CCON=C(C)CCC(=O)OC[C@H]2O[C@H](c3ccccc3)C=C[C@@H]2Oc2ccc(OC)cc2)C=C[C@@H]1Oc1ccc(OC)cc1	0.767
CCOC(=O)[C@H](Cc1ccccc1)NC(=O)OC1CC(CCC2CC(CC)=NO2)OC2(CCCC(COC(=O)NCCC(C)C)O2)C1 (stereo not given in full)	-0.0787
CCN1C(=O)[C@H]2[C@H]3[C@H](O)[C@H](O)CC(=NOC[C@H]4O[C@H](c5ccccc5)C=C[C@@H]4Oc4ccc(OC)cc4)[C@@H]3CC[C@H]2C1=O	1.65
COc1ccc(O[C@H]2C=C[C@@H](c3ccccc3)O[C@@H]2COC(=O)CCC(C)=NOC(C)CN2CCCc3nc(C)c(C)cc32)cc1 (stereo not given in full)	0.812
CON=C[C@@H](NS(=O)(=O)c1ccc(C)cc1)[C@H](C)C=CCC(=O)OC	0.849
O=c1n(-c2ccccc2)c(=O)n2n1CC[C@@H]1C(=NOCc3ccccc3)[C@H]3O[C@H]3[C@@H](O)[C@@H]12	0.0311
CCOC(=O)CCN1C(=O)[C@H]2[C@H]3[C@H](O)[C@H](O)CC(=NOCc4ccccc4)[C@H]3CC[C@H]2C1=O	0.939
COc1ccc(COC(=O)NN=C2C[C@@H](O)[C@@H](O)[C@@H]3[C@@H]4C(=O)N(c5cccc(Oc6ccccc6)c5)C(=O)[C@@H]4CC[C@@H]23)cc1	1.2
C#CCCCON=C1C[C@@H](O)[C@@H](O)[C@@H]2[C@@H]3C(=O)N(CCC(=O)OCC)C(=O)[C@@H]3CC[C@H]12	-1.4
O=C1C=C[C@@H](O)[C@@H]2[C@@H]3C(=O)N(c4ccc(F)cc4F)C(=O)[C@@H]3CC[C@@H]12	-1.44
Cn1c(=O)n2n(c1=O)[C@H]1[C@H](O)[C@@H]3O[C@@H]3C(=NOCc3ccccc3)[C@H]1CC2	0.0184
COC(=O)[C@H]1O[C@@H](c2c(OC)c(OC)c(C)c(OC)c2OC)[C@H](C)[C@@H](O)[C@H]1C	0.183
CC(C)=NOC[C@@H](C)[C@H](OCc1ccccc1)C(C)C	0.503
C[C@H]1COC(=O)[C@@H]2CCCN2C(=O)[C@@H](C)COC(=O)[C@H](Cc2ccccc2)NC1=O	-0.29
O=C1CCCC=C1C(O)CCCCBr (stereo not given)	1.15

* * *

# assayText: E. coli acrAB mutant growth effects, primary screen, E. coli filamentation inducers, strain DRC39, OD650, 24 h (AID 1178);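 also: growth measured as culture turbidity by optical density at 650 nm; test concentration not given here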
# studyConditions: higher = more signal, called active from +8 up or from −8 down
Activity calls are given as the source filed them.
Entries annotated with measured z-score

compound	z-score
O=C1[C@H]2[C@H]3[C@H](O)[C@H](O)CC(=NOC[C@@H](O)COCc4ccco4)[C@H]3CC[C@H]2C(=O)N1c1ccc(F)cc1F	-0.311 (inactive)
CCOC(=O)[C@H](CC(C)C)NC(=O)CCC1CC(OC(=O)NCCc2ccc(F)cc2)CC2(CCCC(COC(=O)NCCOc3ccccc3)O2)O1 (some centres undefined)	-0.183 (inactive)
COc1cccc([C@H]2Oc3ccc(OC)cc3C(=NOC[C@@H](O)[C@H]3O[C@@H]4OC(C)(C)O[C@@H]4[C@H]3O)[C@@H]2O)c1	-0.218 (inactive)
COC(=O)CC=C[C@@H](C)[C@@H](C=NO[C@H](C)c1cn([C@H](CO)Cc2ccccc2)nn1)OC	0.0343 (inactive)

* * *

# assayText: E. coli growth modulation, two-sided OD650, primary screen, E. coli filamentation project, strain DRC41, 24 h (AID 1093);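 also: MC1000 strain lacking acrAB efflux and sulA so SOS filamentation is blocked; test concentration not given here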
# studyConditions: OD650, 24 h, higher = more signal, called active from +8 up or from −8 down
z-score values by entry

molecule	z-score
CCOC(=O)[C@H](CC(C)C)NC(=O)CCC1CC(OC(=O)NCc2cccc3ccccc23)CC2(CCCC(COC(=O)NCCC(C)C)O2)O1 (some centres undefined)	-0.77
O=C1[C@H]2[C@H]3[C@H](O)[C@H](O)CC(=NO[C@@H]4O[C@H](CO)[C@@H](O)[C@H](O)[C@H]4O)[C@H]3CC[C@H]2C(=O)N1c1cccc(Oc2ccccc2)c1	0.563
CC(C)CON=C1C[C@@H](O)[C@@H](O)[C@@H]2[C@@H]3C(=O)N(c4ccc(F)cc4F)C(=O)[C@@H]3CC[C@H]12	-0.385
COC(=O)[C@@H]1CC[C@H](C)[C@@H](c2ccc(C)cc2)N1C(=O)c1ccc(C=NOCC[C@@H]2C=C[C@H](OC(C)=O)[C@@H](COC(C)=O)O2)cc1	0.411
CC(C)CON=C1C[C@@H](O)[C@@H](O)[C@@H]2[C@@H]3C(=O)N(C4CCCCC4)C(=O)[C@@H]3CC[C@H]12	0.411
O=C1C[C@@H](O)[C@@H](O)[C@@H]2[C@@H]3C(=O)N(Cc4ccccc4)C(=O)[C@@H]3CC[C@@H]12	-0.174
COC(=O)CC=C[C@@H](C)[C@@H](C=NOC[C@@H](O)[C@H]1O[C@@H]2OC(C)(C)O[C@@H]2[C@H]1O)NS(=O)(=O)c1ccc(C)cc1	0.445
CC(C)=CCCC(C)=CCON=C1C[C@@H](O)[C@@H](O)[C@@H]2[C@@H]3C(=O)N(Cc4ccccc4)C(=O)[C@@H]3CC[C@H]12	-0.128
O=C(NN=C1C[C@@H](O)[C@@H](O)[C@@H]2[C@@H]3C(=O)N(C[C@@H]4CCCO4)C(=O)[C@@H]3CC[C@H]12)OCc1ccccc1	0.52
Cc1cc2c(nc1C)CCCCN2CC(C)ON=C1[C@H]2CCn3c(=O)n(-c4ccccc4)c(=O)n3[C@H]2[C@H](O)[C@@H]2O[C@H]12 (some centres undefined)	0.777
Cc1ccc(S(=O)(=O)N[C@H]2COC(=O)CC=C[C@@H](C)COC(=O)CC=C[C@@H]2C)cc1	0.682
COCCNC(=O)OCC1CCCC2(CC(OC(=O)NCc3ccc4c(c3)OCO4)CC(CCC(=O)N[C@@H](C)C(=O)OC)O2)O1 (some centres undefined)	-0.427
CO[C@H]1COC(=O)[C@@H](C)COC(=O)[C@H](C)NC(=O)CC=C[C@H]1C	0.414
CON=C[C@@H](NS(=O)(=O)c1ccc(C)cc1)[C@H](C)C=CCC(=O)OC	0.306

* * *

# subjectOfTest: Concanavalin-A (Canavalia ensiformis) (UniProt P02866)
# Sequence (P02866 whole entry, looked up): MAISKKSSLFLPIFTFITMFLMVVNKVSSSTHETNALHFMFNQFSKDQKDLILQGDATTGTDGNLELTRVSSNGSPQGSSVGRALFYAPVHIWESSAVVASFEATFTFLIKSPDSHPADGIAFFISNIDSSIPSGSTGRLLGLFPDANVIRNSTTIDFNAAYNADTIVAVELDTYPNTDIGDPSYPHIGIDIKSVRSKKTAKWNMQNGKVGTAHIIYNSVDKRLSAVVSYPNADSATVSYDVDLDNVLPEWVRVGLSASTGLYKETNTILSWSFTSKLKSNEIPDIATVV
# assayText: ConA small-molecule binders, primary screen, artefact control for SMM control protein annotation, biochemical, small-molecule microarray, Alexa647 label, 635 nm (AID 1127);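 also: z combines 667 nm emission intensity with signal-to-noise across three replicate slides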
# studyConditions: ConA-A647 binding fluorescence, higher = more signal
Each entry gets not satisfied if its composite z-score stays under -0.3, and satisfied if its composite z-score is -0.3 or above.

compound	classLabel
COc1ccc(COC(=O)NN=C2C[C@@H](O)[C@@H](O)[C@@H]3[C@@H]4C(=O)N(c5cccc(Oc6ccccc6)c5)C(=O)[C@@H]4CC[C@@H]23)cc1	not satisfied
CO[C@H]1COC(=O)CC=C[C@@H](C)[C@H](OC)COC(=O)CCC[C@@H]1C	not satisfied
COC(=O)CC=C[C@@H](C)[C@@H](C=NO[C@H](C)c1cn([C@H](CO)Cc2ccccc2)nn1)NS(=O)(=O)c1ccc(C)cc1	satisfied
CC(CCN1CCCCc2nc(C)c(C)cc21)=NOC[C@@H](C)[C@H](OCc1ccccc1)C(C)C	not satisfied
COc1cccc([C@H]2Oc3ccc(OC)cc3C(=NOC(C)CN3CCCCc4nc(C)c(C)cc43)[C@@H]2O)c1 (some centres not stated)	satisfied
CCN1C(=O)[C@H]2[C@H]3[C@H](O)[C@H](O)CC(=NNC(=O)OCc4ccc(OC)cc4)[C@@H]3CC[C@H]2C1=O	satisfied
CC[C@@H](c1ccccc1)n1c(=O)n2n(c1=O)[C@H]1[C@H](O)[C@@H]3O[C@@H]3C(=O)[C@H]1CC2	satisfied

These data points were gathered from PubChem BioAssay.
